Molecular target: 17-beta-hydroxysteroid dehydrogenase type 3 (Rattus norvegicus)
Test: Inhibition of 17beta-HSD3 in rat testes microsomes using [14C]-4-androstene-3,17-dione as substrate measured based on 33% of initial enzyme transformation at 0.1 uM after 2 hrs
Details: Testis
Reported inhibition values are given for each entry in this list.

- COMPOUND STRING: "C[C@]12CC[C@@]3(C[C@@H]1CC[C@@H]1[C@@H]2CC[C@]2(C)C(=O)CC[C@@H]12)CN(Cc1ccc(OC(F)(F)F)cc1)CC(=O)O3"
  UOM: "%"
  inhibition: 79
- COMPOUND STRING: "C[C@]12CC[C@@]3(C[C@@H]1CC[C@@H]1[C@@H]2CC[C@]2(C)C(=O)CC[C@@H]12)CN(CCc1ccccc1)CC(=O)O3"
  UOM: "%"
  inhibition: 78.5
- COMPOUND STRING: "C[C@]12CC[C@@]3(C[C@@H]1CC[C@@H]1[C@@H]2CC[C@]2(C)C(=O)CC[C@@H]12)CN(Cc1ccc(Br)cc1)CC(=O)O3"
  UOM: "%"
  inhibition: 79.1
- COMPOUND STRING: "C[C@]12CC[C@@]3(C[C@@H]1CC[C@@H]1[C@@H]2CC[C@]2(C)C(=O)CC[C@@H]12)CN(Cc1ccccc1)CC(=O)O3"
  UOM: "%"
  inhibition: 80.8
- COMPOUND STRING: "C[C@]12CC[C@@]3(C[C@@H]1CC[C@@H]1[C@@H]2CC[C@]2(C)C(=O)CC[C@@H]12)CN(Cc1ccc(-c2ccccc2)cc1)CC(=O)O3"
  UOM: "%"
  inhibition: 81.9
- COMPOUND STRING: "C[C@]12CC[C@@]3(C[C@@H]1CC[C@@H]1[C@@H]2CC[C@]2(C)C(=O)CC[C@@H]12)CN(CCCCc1ccccc1)CC(=O)O3"
  UOM: "%"
  inhibition: 79.9
- COMPOUND STRING: "C[C@]12CC[C@@]3(C[C@@H]1CC[C@@H]1[C@@H]2CC[C@]2(C)C(=O)CC[C@@H]12)CN(Cc1ccc(OCc2ccccc2)cc1)CC(=O)O3"
  UOM: "%"
  inhibition: 80.4
